tested on: M14 melanoma; experiment: NCI tumour cell line growth inhibition, 48 h
ASSAY_READOUT: TGI

| COMPOUND | REPORTED |
| --- | --- |
| c1ccc(C(=NNc2cnc3ccccc3n2)c2ccccn2)cc1 | 10.9 µM |
| O=c1c2cc([N+](=O)[O-])ccc2n2n1CCCC2 | > 100 µM |
| COC(=O)C1C2CC3C1C3C2C(=O)OC (centres undefined) | > 100 µM |
| CSc1nc(SC)c2ncn(C3CC(Oc4ccc(C)cc4)C(COc4ccc(C)cc4)O3)c2n1 (centres undefined) | > 100 µM |
| c1ccc2c(c1)[nH]c1c2nc2ncccn21 | > 100 µM |
| [O-][n+]1onc2c1/C(=N/O)CCC2 | > 100 µM |
| O=C1OC(c2ccccc2)(c2cc(Br)c(O)c(Br)c2)c2ccccc21 (centres undefined) | 36.8 µM |
| CN1Cc2cc3c(cc2-c2ccccc21)OCO3 | > 100 µM |

Now turn to the next compound.
Exercise: Sample COC(=O)/C=C(/OC)[C@H](C)[C@H](/C=C/c1csc(-c2csc(C(C)C)n2)n1)OC — what was its TGI?
Solution: > 100 µM
